// data source = patent US6433175B1

subject_of_test: human 5-HT2C (Homo sapiens)
Sequence (P28335 33-458): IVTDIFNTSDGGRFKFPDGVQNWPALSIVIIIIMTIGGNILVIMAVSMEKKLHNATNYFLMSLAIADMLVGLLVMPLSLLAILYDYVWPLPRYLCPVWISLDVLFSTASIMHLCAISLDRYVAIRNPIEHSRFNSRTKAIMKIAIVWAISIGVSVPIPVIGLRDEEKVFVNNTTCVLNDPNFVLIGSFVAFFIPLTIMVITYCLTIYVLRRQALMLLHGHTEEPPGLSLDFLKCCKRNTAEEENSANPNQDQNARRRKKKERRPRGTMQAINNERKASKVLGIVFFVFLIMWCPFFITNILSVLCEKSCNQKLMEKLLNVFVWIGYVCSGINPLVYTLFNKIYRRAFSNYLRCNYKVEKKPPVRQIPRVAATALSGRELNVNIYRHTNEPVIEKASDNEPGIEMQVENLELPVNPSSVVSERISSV
measurement_description: Functional activity, FLIPR calcium assay, CHO cells expressing human 5-HT2C
Type: cell-based
Design: expressed in transfected cells; host or cells: CHO cells
reported_conditions: maximum fluorescent signal relative to 10 μM 5-HT (100%)
Structures can show the parent of a compound that is named as a salt.

| compound | h5-HT2c Relative Efficacy / % |
| --- | --- |
| CC(N)Cc1c2n(c3cc(F)c(F)cc13)CCC2 (racemic) [Example 2, hydrochloride] | 38 |
| CC(N)Cc1c2n(c3ccc(Cl)cc13)CCC2 (racemic) [Example 1, hydrochloride] | 68 |
| CSc1ccc2c(c1)c(CC(C)N)c1n2CCC1 (racemic) [Example 11, fumarate] | 80 |
| COc1ccc2c(c1)c(CC(C)N)c1n2CCC1 (single isomer, unassigned; enantiomer 1) [Example 8] | 58 |
| COc1ccc2c(c1)c(CC(C)N)c1n2CCC1 (racemic) [Example 3, fumarate] | 63 |
| CC(N)Cc1c2n(c3cc4c(cc13)OCO4)CCC2 (racemic) [Example 7, fumarate] | 59 |
| COc1ccc2c(c1)c(CC(C)N)c1n2CCC1 (single isomer, unassigned; enantiomer 2) [Example 9] | 81 |
| CC(N)Cc1c2n(c3ccc(Br)cc13)CCC2 (racemic) [Example 5, fumarate] | 69 |
| Cc1ccc2c(c1)c(CC(C)N)c1n2CCC1 (racemic) [Example 6, fumarate] | 56 |
